- procedure_details: quorum luxo light induction, V. cholerae bh1651 luxod47e, confirmatory dose response (AID 652289)
- applied_conditions: V. cholerae BH1651 luxOD47E, luciferase light induction, 6 h; at 80 µM (top of the series)
test_readout: light induction (%)
Express it in %; write the number only.

INSERT INTO results (smiles_data, assay_value) VALUES
  ('O=C(Nc1nnc(-c2ccc3c(c2)CCCC3)o1)C1CCC1', -0.005),
  ('Cc1ccc2cc3c(NC(=O)c4ccoc4)nn(C)c3nc2c1', 2.86),
  ('O=C(CC1CCCCC1)Nc1nnc(-c2cccnc2)o1', -0.016),
  ('CCC(C)(C)C(=O)Nc1nnc(-c2ccc3c(c2)OCCO3)o1', -0.006),
  ('O=C(Nc1nnc(-c2cccc(Cl)c2)o1)C1CCCCC1', 0.065);

We next turn to a different compound, shown below.
// light induction lookup, compound = O=C(Nc1nnc(-c2ccc(Cl)cc2)o1)C1CCCCC1 , result: -0.026

----------
- System: V. cholerae BH1651 luxOD47E, luciferase light induction, 6 h
- procedure_details: quorum luxo light induction, V. cholerae bh1651 luxod47e, confirmatory dose response (AID 652289)
Activity calls are given as the source filed them. The rule behind the calls is not given here.
test_readout: AC40

INSERT INTO results (smiles_data, experimental_target, test_readout, assay_value) VALUES
  ('COc1ccc(-c2nnc(NC(=O)C3CCCCC3)o2)cc1', 'V. cholerae BH1651 luxOD47E, luciferase light induction, 6 h', 'AC40', '> 100 µM (inactive)'),
  ('Cc1cc(F)c2cc3c(NC(=O)c4ccco4)nn(C)c3nc2c1', 'V. cholerae BH1651 luxOD47E, luciferase light induction, 6 h', 'AC40', '33.5 µM');

We next turn to a different compound, shown below.
// AC40 lookup, compound = Cc1ccc2cc3c(NC(=O)c4cccs4)nn(C)c3nc2c1 , result: 70.8 µM

----------
- procedure_details: quorum luxo light induction, V. cholerae bh1651 luxod47e, confirmatory dose response (AID 652289)
- applied_conditions: V. cholerae BH1651 luxOD47E, luciferase light induction, 6 h; at 100 µM (top of the series)
Active and inactive are the calls of the source. The rule behind the calls is not given here.
Measured light induction, listed per entry for reference.

INSERT INTO measurements (compound, assay_value) VALUES
  ('O=C(Nc1nnc(-c2cccnc2)o1)C1CCC1', '0.001% (inactive)'),
  ('Cn1ccc(NC(=O)c2ccco2)n1', '0.053% (inactive)');

// light induction lookup, compound = CC(C)(C)OC(=O)N1CCC(C(=O)Nc2nnc(-c3ccc4c(c3)OCCO4)o2)CC1 , result: 0.028% (inactive)

// light induction lookup, compound = Cc1ccc2cc3c(NC(=O)Cc4ccco4)nn(C)c3nc2c1 , result: 1.12% (inactive)

// light induction lookup, compound = Cn1nc(NC(=O)c2ccco2)c2cc3ccc(C(C)(C)C)cc3nc21 , result: 0% (inactive)

// light induction lookup, compound = O=S(=O)(Nc1nnc(-c2ccc3c(c2)OCCO3)o1)c1ccc(Cl)cc1 , result: -0.005% (inactive)

// light induction lookup, compound = Cc1ccc2cc3c(NC(=O)c4ccccn4)nn(C)c3nc2c1 , result: 0.001% (inactive)

// light induction lookup, compound = O=C(Cc1ccc(-c2ccccc2)cc1)NC1CCC1 , result: -0.023% (inactive)

// light induction lookup, compound = O=C(Nc1nnc(-c2ccc3c(c2)OCCO3)o1)C1CCC1 , result: 0.013% (inactive)

// light induction lookup, compound = CC(C)c1ccc2cc3c(NC(=O)c4ccco4)nn(C)c3nc2c1 , result: 0.507% (inactive)

// light induction lookup, compound = O=C(Nc1nnc(-c2ccccc2Cl)o1)C1CCCCC1 , result: -0.01% (inactive)
